System: Staphylococcus aureus
protocol-summary: Antibacterial activity against Staphylococcus aureus MTCC 7443 after 24 hr by serial dilution method
Type: functional
Exercise: state measured -logMIC for each of the molecules provided.
A bare number is all that is needed in reply.

Quick one: -logMIC of C/C(=N\Nc1nc(-c2ccc(Cl)cc2)cs1)c1c(O)cc(C)oc1=O ?
1.478

Quick one: -logMIC of CCn1cc(C(=O)O)c(=O)c2cc(F)c(N3CCNCC3)cc21 ?
2.698

Quick one: -logMIC of COc1ccc(-c2csc(N/N=C(\C)c3c(O)cc(C)oc3=O)n2)cc1 ?
1.472

Quick one: -logMIC of COc1ccc(-c2csc(-n3[nH]c(C)c(-c4cc(C)no4)c3=O)n2)cc1 ?
1.771

Quick one: -logMIC of Cc1cc(-c2c(C)[nH]n(-c3nc(-c4ccc(Cl)cc4)cs3)c2=O)on1 ?
2.077

Quick one: -logMIC of Cc1cc(-c2c(C)[nH]n(-c3nc(-c4ccccc4)cs3)c2=O)on1 ?
1.733

Quick one: -logMIC of Cc1ccc(-c2csc(-n3[nH]c(C)c(-c4cc(C)no4)c3=O)n2)cc1 ?
1.75

Quick one: -logMIC of C/C(=N\Nc1nc(-c2ccccc2)cs1)c1c(O)cc(C)oc1=O ?
1.737

Quick one: -logMIC of CC(=O)CC(=O)c1c(C)[nH]n(-c2nc(-c3ccccc3)cs2)c1=O ?
1.435

Quick one: -logMIC of C/C(=N\Nc1nc(-c2ccc(C)cc2)cs1)c1c(O)cc(C)oc1=O ?
1.453

###

Exercise: state measured -logMIC for each of the compounds provided.
System: Aspergillus niger
protocol-summary: Antifungal activity against Aspergillus niger MTCC 282 after 120 hr by serial dilution method
Format: functional

Test system Aspergillus niger; read-out -logMIC; what value for COc1ccc(-c2csc(-n3[nH]c(C)c(-c4cc(C)no4)c3=O)n2)cc1 ?
1.771

Test system Aspergillus niger; read-out -logMIC; what value for OC(Cn1cncn1)(Cn1cncn1)c1ccc(F)cc1F ?
3

Test system Aspergillus niger; read-out -logMIC; what value for Cc1cc(-c2c(C)[nH]n(-c3nc(-c4ccccc4)cs3)c2=O)on1 ?
1.432

Test system Aspergillus niger; read-out -logMIC; what value for C/C(=N\Nc1nc(-c2ccccc2)cs1)c1c(O)cc(C)oc1=O ?
1.435

Test system Aspergillus niger; read-out -logMIC; what value for C/C(=N\Nc1nc(-c2ccc(C)cc2)cs1)c1c(O)cc(C)oc1=O ?
1.435

Test system Aspergillus niger; read-out -logMIC; what value for Cc1cc(-c2c(C)[nH]n(-c3nc(-c4ccc(Cl)cc4)cs3)c2=O)on1 ?
1.474

Test system Aspergillus niger; read-out -logMIC; what value for Cc1ccc(-c2csc(-n3[nH]c(C)c(-c4cc(C)no4)c3=O)n2)cc1 ?
1.75

Test system Aspergillus niger; read-out -logMIC; what value for C/C(=N\Nc1nc(-c2ccc(Cl)cc2)cs1)c1c(O)cc(C)oc1=O ?
1.478

Test system Aspergillus niger; read-out -logMIC; what value for COc1ccc(-c2csc(N/N=C(\C)c3c(O)cc(C)oc3=O)n2)cc1 ?
1.472

Test system Aspergillus niger; read-out -logMIC; what value for CC(=O)CC(=O)c1c(C)[nH]n(-c2nc(-c3ccccc3)cs2)c1=O ?
1.435
